Reported Keratinocytes (HaCaT) MTT by item:
system: Keratinocytes (HaCaT); assay: Safety, MTT test in keratinocytes; format: cell-based; conditions: 250 µM; 48 hours

O=C(/C=C/c1ccccc1)NCCCCCO :: 95.53±2.80 % of solvent control
O=C(/C=C/c1ccc(Cl)cc1)NCCCCCO :: 91.57±2.10 % of solvent control

Inquiry: Keratinocytes (HaCaT) MTT for `O=C(/C=C/c1ccc(Cl)cc1)NCCO` ?
Reply text: 89.94±4.66 % of solvent control

Inquiry: # input compound: `O=C(/C=C/c1ccc(Cl)cc1)NCCCO` ; wanted: its Keratinocytes (HaCaT) MTT
Reply text: 94.89±1.06 % of solvent control

Inquiry: I would be grateful if you could share the reported Keratinocytes (HaCaT) MTT for `Cc1ccc(/C=C/C(=O)NCCCCCO)cc1` .
Reply text: 88.54±3.74 % of solvent control
